From: patent US11649460B2

- Tested on: DU-145 human prostate carcinoma cell line
- Assay Method Text: SRB cell proliferation (cytotoxicity) assay, DU-145
- Experimental Setup: read-out: IC50: Concentration to inhibit 50% of cell growth; DU-145
Recorded Metric: pIC50
Bear in mind: pIC50 is minus log10 of a mol/L concentration; give just that figure.

Given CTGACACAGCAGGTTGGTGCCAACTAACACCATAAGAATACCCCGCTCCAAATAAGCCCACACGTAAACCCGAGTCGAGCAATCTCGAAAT (nucleic acid, chemistry not given here, DNA aptamer that recognizes human galectin-1) DNA: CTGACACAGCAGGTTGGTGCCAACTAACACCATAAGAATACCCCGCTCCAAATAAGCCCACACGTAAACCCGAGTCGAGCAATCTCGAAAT , state its recorded pIC50.
4.14

Repeat for the following molecule: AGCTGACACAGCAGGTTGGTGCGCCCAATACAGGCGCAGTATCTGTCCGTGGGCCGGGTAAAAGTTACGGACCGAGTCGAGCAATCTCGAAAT (nucleic acid, chemistry not given here) DNA: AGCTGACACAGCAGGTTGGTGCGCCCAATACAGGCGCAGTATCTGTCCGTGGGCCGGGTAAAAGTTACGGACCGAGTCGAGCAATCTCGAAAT
4.63

Next up: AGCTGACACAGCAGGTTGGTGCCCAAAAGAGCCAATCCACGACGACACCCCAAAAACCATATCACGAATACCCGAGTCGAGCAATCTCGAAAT (nucleic acid, chemistry not given here) DNA: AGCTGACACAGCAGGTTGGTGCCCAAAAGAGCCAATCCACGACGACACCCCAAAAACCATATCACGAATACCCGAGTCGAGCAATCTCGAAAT
4.13

Would you kindly look at the next entry?
Given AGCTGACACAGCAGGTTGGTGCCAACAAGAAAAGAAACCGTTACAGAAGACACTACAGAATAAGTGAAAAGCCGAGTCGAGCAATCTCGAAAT (nucleic acid, chemistry not given here) DNA: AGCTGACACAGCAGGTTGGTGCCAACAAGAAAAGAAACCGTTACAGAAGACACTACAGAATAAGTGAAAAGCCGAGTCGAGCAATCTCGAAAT , state its recorded pIC50.
4.41
